The reader will find reported GI50 values listed item by item below.
test system: KRAS G12C Ba/F3 cells (Homo sapiens, UniProt P01116, G12C, cells depend on it)
Sequence (P01116 whole entry G12C): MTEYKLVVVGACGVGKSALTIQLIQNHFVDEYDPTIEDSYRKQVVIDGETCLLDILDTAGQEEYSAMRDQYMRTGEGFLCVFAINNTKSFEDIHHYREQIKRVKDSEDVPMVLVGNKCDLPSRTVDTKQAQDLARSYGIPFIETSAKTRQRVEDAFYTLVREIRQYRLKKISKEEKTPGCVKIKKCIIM
assay text: Ba/F3 proliferation assay, KRAS G12C
Format: cell-based
experimental parameters: 72 h, AlamarBlue; read-out: KRAS G12C Ba/F3 IC50
Respond numerically; units are nM and should not be typed.

{"molecule": "C[C@H]1CNCCCN1c1nccc(-c2nn(C)c3c2CCC32CCCc3sc(N)c(C#N)c32)n1 (stereo partly shown) [IIIb-1]", "value type": "GI50", "assay result": 11500}
{"molecule": "C[C@H]1CNCCCN1c1cccc(-c2onc3c2CCC[C@@]32CCCc3sc(N)c(C#N)c32)n1 [Ib-3]", "value type": "GI50", "assay result": 317}
{"molecule": "CO[C@@H]1C[C@@H]([C@H](C)Oc2nccc(-c3onc4c3CCC[C@@]43CCCc4sc(N)c(C#N)c43)n2)N(C)C1 [Ie-1]", "value type": "GI50", "assay result": 43}

Turning now to a further record.
-- ask Param request: GI50 | system KRAS G12C Ba/F3 cells (Homo sapiens, UniProt P01116, G12C, cells depend on it) | item C[C@H]1CN(C2CCOCC2)CCCN1c1nccc(-c2noc3c2CCC[C@@]32CCCc3sc(N)c(C#N)c32)n1 (single isomer, unassigned) [IIg-1]
-- reply 10

----------
test system: KRAS G12C Ba/F3 cells (Homo sapiens, UniProt P01116, G12C, cells depend on it)
assay text: Ba/F3 proliferation assay, KRAS G12C
Type: cell-based
experimental parameters: 72 h, AlamarBlue; read-out: KRAS G12C Ba/F3 IC50
The reader will find reported GI50 values listed item by item below.
Answer with the number, then the unit.

-- ask Give the reported value of GI50 for this record: C[C@H]1CN(C2CCOC2)CCCN1c1nccc(-c2onc3c2CCC[C@@]32CCCc3sc(N)c(C#N)c32)n1 (stereo partly shown) [Ig-2]
-- reply 123 nM

-- ask Give the reported value of GI50 for this record: C[C@H]1CNCCCN1c1nccc(-c2noc3c2CSCC32CCCc3sc(N)c(C#N)c32)n1 (stereo partly shown) [IIb-4]
-- reply 485 nM

-- ask Give the reported value of GI50 for this record: C[C@H](Oc1nccc(-c2noc3c2CCC[C@@]32CCCc3sc(N)c(C#N)c32)n1)[C@@]1(C)CCCN1C [IIe-1]
-- reply 254 nM

-- ask Give the reported value of GI50 for this record: C[C@H]1[C@@H]2CCCN2CCCN1c1nccc(-c2onc3c2CCC[C@@]32CCCc3sc(N)c(C#N)c32)n1 [Id-1]
-- reply 42 nM

-- ask Give the reported value of GI50 for this record: C[C@@H]1NCCCN(c2nccc(-c3onc4c3CCC[C@@]43CCCc4sc(N)c(C#N)c43)n2)[C@H]1C [Ib-2]
-- reply 126 nM

-- ask Give the reported value of GI50 for this record: CC(Oc1nccc(-c2onc3c2CCC[C@@]32CCCc3sc(N)c(C#N)c32)n1)C12CCCN1CCC2 (stereo partly shown) [Ie-5]
-- reply 118 nM

-- ask Give the reported value of GI50 for this record: C[C@H](Oc1nccc(-c2onc3c2CCC[C@@]32CCCc3sc(N)c(C#N)c32)n1)[C@@H]1C[C@@H](F)CN1C [Ie-2]
-- reply 155 nM

----------
test system: KRAS (G13D)::SOS1 (Homo sapiens, UniProt P01116, C118S/G13D)
Construct: KRAS (G13D) 1-169, N-terminal 6His-tag for purification, cleaved off; 6His-tag (N, cleaved yes); TEV cleavage site
Sequence (P01116 1-169 isoform P01116-2 G13D/C118S): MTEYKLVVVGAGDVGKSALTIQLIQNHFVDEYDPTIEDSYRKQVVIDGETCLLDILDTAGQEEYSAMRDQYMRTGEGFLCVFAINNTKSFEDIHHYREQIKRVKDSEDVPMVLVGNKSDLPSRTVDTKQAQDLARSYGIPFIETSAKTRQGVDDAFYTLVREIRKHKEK
assay text: KRAS::SOS1 AlphaScreen binding assay, KRAS G13D
value type: pIC50
By convention, pIC50 is the negative base-10 log of a molar concentration.

-- ask Give the reported value of pIC50 for this record: C[C@H]1CNCCCN1c1nccc(-c2onc3c2CCC[C@@]32CCCc3sc(N)c(C#N)c32)n1
-- reply 6.03

-- ask Give the reported value of pIC50 for this record: C[C@H]1[C@@H]2CCCN2CCCN1c1nccc(-c2onc3c2CCC[C@@]32CCCc3sc(N)c(C#N)c32)n1
-- reply 7.05

----------
The reader will find reported solubility at 24 h values listed item by item below.
assay text: Solubility measurement (DMSO solution precipitation method)
Type: physicochemical
experimental parameters: aqueous buffer, kinetic from dmso stock; McIlvaine buffer pH 4.5, 24 h, ambient temperature; read-out: solubility pH 4.5
Respond numerically; units are µg/mL and should not be typed.

{"compound": "C[C@H]1CNCCCN1c1nccc(-c2noc3c2CC(F)(F)CC32CCCc3sc(N)c(C#N)c32)n1 (stereo partly shown)", "unit string": "µg/mL", "solubility at 24 h": 53}
{"compound": "C[C@H]1CN(C2CCOCC2)CCCN1c1nccc(-c2noc3c2CCC[C@@]32CCCc3sc(N)c(C#N)c32)n1 (single isomer, unassigned)", "unit string": "µg/mL", "solubility at 24 h": 107}

Turning now to a further record.
-- ask Give the reported value of solubility at 24 h for this record: C[C@H](Oc1nccc(-c2onc3c2CCC[C@@]32CCCc3sc(N)c(C#N)c32)n1)[C@@H]1C[C@@H]2C[C@@H]2N1
-- reply 89

----------
assay text: Caco-2 assay
Assay type: in vitro ADME
experimental parameters: human, Caco-2, apical to basolateral, pH 7.4, read-out: Caco PappAB
value type: Papp A→B at 90 min, 10 μM (×10⁻⁶ cm/s)
Respond numerically; units are ×10⁻⁶ cm/s and should not be typed.

-- ask Give the reported value of Papp A→B at 90 min, 10 μM for this record: C[C@H](Oc1nccc(-c2noc3c2CCC[C@@]32CCCc3sc(N)c(C#N)c32)n1)[C@@H]1CCCN1C
-- reply 21

-- ask Give the reported value of Papp A→B at 90 min, 10 μM for this record: C[C@H]1CNCCCN1c1nccc(-c2noc3c2CCC[C@@]32CCCc3sc(N)c(C#N)c32)n1 (single isomer, unassigned)
-- reply 13

-- ask Give the reported value of Papp A→B at 90 min, 10 μM for this record: C[C@H](Oc1nccc(-c2onc3c2CCC[C@@]32CCCc3sc(N)c(C#N)c32)n1)[C@@H]1C[C@@H](F)CN1C
-- reply 33

----------
The reader will find reported GI50 values listed item by item below.
test system: KRAS G12D Ba/F3 cells (Homo sapiens, UniProt P01116, G12D, cells depend on it)
Sequence (P01116 whole entry G12D): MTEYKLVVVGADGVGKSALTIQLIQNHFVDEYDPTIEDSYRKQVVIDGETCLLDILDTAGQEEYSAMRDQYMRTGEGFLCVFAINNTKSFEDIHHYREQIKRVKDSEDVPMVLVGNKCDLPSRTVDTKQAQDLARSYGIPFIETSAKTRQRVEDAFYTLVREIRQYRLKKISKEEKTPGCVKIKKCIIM
assay text: Ba/F3 proliferation assay, KRAS G12D
Type: cell-based
experimental parameters: 72 h, AlamarBlue; read-out: KRAS G12D Ba/F3 IC50
Respond numerically; units are µM and should not be typed.

Solved cases below.
{"compound": "C[C@H]1CNCCCN1c1ncnc(-c2onc3c2CCC[C@@]32CCCc3sc(N)c(C#N)c32)n1 [Ib-4]", "unit string": "µM", "assay result": 0.211}
{"compound": "C[C@H]1CNCCCN1c1nccc(-c2onc3c2CCC[C@@]32CCCc3sc(N)c(C#N)c32)n1 [If-1]", "unit string": "µM", "assay result": 0.077}
{"compound": "C[C@H]1CNCCCN1c1nccc(-c2nn(C)c3c2CCC32CCCc3sc(N)c(C#N)c32)n1 (some centres unmarked) [IIIb-1]", "unit string": "µM", "assay result": 15.1}
{"compound": "C[C@H]1CNCCCN1c1nccc(-c2noc3c2CCC[C@@]32CCCc3sc(N)c(C#N)c32)n1 (single isomer, unassigned) [IIb-5]", "unit string": "µM", "assay result": 0.032}
{"compound": "C[C@H]1CNCCCN1c1nccc(-c2noc3c2CSCC32CCCc3sc(N)c(C#N)c32)n1 (some centres unmarked) [IIb-4]", "unit string": "µM", "assay result": 0.174}
{"compound": "CCN1[C@H]2C[C@H]2C[C@H]1[C@H](C)Oc1nccc(-c2onc3c2CCC[C@@]32CCCc3sc(N)c(C#N)c32)n1 [Ie-3]", "unit string": "µM", "assay result": 0.033}

-- ask Give the reported value of GI50 for this record: C[C@H]1CNCCCN1c1nccc(-c2noc3c2OCCC32CCCc3sc(N)c(C#N)c32)n1 (some centres unmarked) [IIb-7]
-- reply 0.123

-- ask Give the reported value of GI50 for this record: C[C@H]1CN(C2CCOC2)CCCN1c1nccc(-c2onc3c2CCC[C@@]32CCCc3sc(N)c(C#N)c32)n1 (some centres unmarked) [Ig-2]
-- reply 0.174

-- ask Give the reported value of GI50 for this record: C[C@H](Oc1nccc(-c2nnn3c2CCCC32CCCc3sc(N)c(C#N)c32)n1)[C@@H]1CCCN1C (some centres unmarked) [IVa-1]
-- reply 0.381

-- ask Give the reported value of GI50 for this record: C[C@H](Oc1nccc(-c2onc3c2CCC[C@@]32CCCc3sc(N)c(C#N)c32)n1)[C@@H]1C[C@@H]2C[C@@H]2N1 [If-2]
-- reply 4.67

-- ask Give the reported value of GI50 for this record: CO[C@@H]1C[C@@H]([C@H](C)Oc2nccc(-c3onc4c3CCC[C@@]43CCCc4sc(N)c(C#N)c43)n2)N(C)C1 [Ie-1]
-- reply 0.028

-- ask Give the reported value of GI50 for this record: C[C@H](Oc1nccc(-c2onc3c2CCC[C@@]32CCCc3sc(N)c(C#N)c32)n1)[C@@H]1CCCN1C [Ib-1]
-- reply 0.024
